All values here come from patent US11478461B2.

# SUBJECT OF TEST: UniProt:P14902
# MEASUREMENT PROTOCOL: IDO1 Cellular Assay in Hela Cells Stimulated with IFNγ
# Type: cell-based
# CONDITION: IFNγ 100 ng/mL, 300 uM L-tryptophan, about 48 hours, fluorescence readout, read-out: IDO1 HELA Cell Assay, IC50
# Description: Biological Assays IDO1 Cellular Assay in Hela Cells Stimulated with IFNγ Hela cells were cultured in complete Hela culture medium ([…], 10% heat-inactivated fetal bovine serum) and expanded to about 1×10^9 cells. […] Hela cells with and without IFNγ were dispensed to the respective wells of 384-well assay plates containing the compounds. […] The resulting fluorescence was measured in a Spectramax plate reader (Molecular Devices) with a 400 nm excitation filter and a 510 nm emission filter. […]
OBSERVABLE: pIC50
Units for pIC50: none; it is -log10 of a concentration expressed in mol/L.

Known results for molecules:
>>> measured_value("CC(C(=O)Nc1ccc(F)cc1)C12CC(NC(=O)c3cnn4ccccc34)(C1)C2 (stereo not shown)")
7.32
>>> measured_value("O=C(NC1(C23CC(NC(=O)c4cc(C(F)F)ccn4)(C2)C3)CC1)c1ccc(F)cc1")
6.98
>>> measured_value("C[C@H](C(=O)Nc1ccc(F)cc1)C12CC(NC(=O)c3cncc(Cl)c3)(C1)C2")
8.19
>>> measured_value("C[C@@H](C(=O)Nc1ccc(F)cc1)C12CC(NC(=O)c3cccc(Cl)n3)(C1)C2")
5.14
>>> measured_value("CC(C(=O)Nc1ccc(Cl)cc1)C12CC(NC(=O)OC3CC3)(C1)C2 (single isomer, unassigned) [Example 20]")
7.54

# pIC50 lookup, item C[C@H](C(=O)Nc1ccc(F)cc1)C12CC(NC(=O)c3ccnc(C(F)(F)F)c3)(C1)C2
7.88

Could you do the same for CC(C(=O)Nc1ccc(F)cc1)C12CC(NC(=O)c3ncccc3F)(C1)C2 (stereo not shown) , please?
6.41

* * *

# SUBJECT OF TEST: IDO1 (Homo sapiens)
# Sequence (P14902 whole entry): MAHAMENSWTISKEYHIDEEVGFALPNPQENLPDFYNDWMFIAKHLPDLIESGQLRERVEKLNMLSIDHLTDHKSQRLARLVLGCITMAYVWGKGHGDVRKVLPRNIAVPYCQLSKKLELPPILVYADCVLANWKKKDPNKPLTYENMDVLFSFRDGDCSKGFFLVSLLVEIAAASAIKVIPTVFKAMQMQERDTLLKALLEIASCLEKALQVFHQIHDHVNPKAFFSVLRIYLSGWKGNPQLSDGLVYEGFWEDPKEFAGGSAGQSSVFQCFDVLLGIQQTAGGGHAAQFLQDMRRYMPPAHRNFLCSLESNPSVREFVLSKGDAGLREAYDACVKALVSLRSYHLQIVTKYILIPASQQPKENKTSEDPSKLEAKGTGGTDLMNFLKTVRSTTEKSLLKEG
# MEASUREMENT PROTOCOL: IDO1 Human whole blood Assay
# Assay type: cell-based
# Design: Human whole blood was drawn in sodium heparin coated tubes from healthy internal donors; from tissue; host or cells: Human whole blood from healthy donors, stimulated with LPS and IFNγ
# CONDITION: LPS and IFNγ 100 ng/mL, 18 h, kynurenine by LC/MS/MS
// classify: if (IC50 < 100 nM) Y else N

>>> label_value("C[C@H](C(=O)Nc1ccc(F)cc1)C12CC(NC(=O)c3ccc(Cl)cc3F)(C1)C2 [Example 52]")
"Y"
>>> label_value("CC(C(=O)Nc1ccc(Cl)nc1)C12CC(NC(=O)c3cccc(Cl)c3)(C1)C2 (single isomer, unassigned) [Example 17]")
"N"
>>> label_value("O=C(NC12CC(C3(C(=O)Nc4ccc(F)cc4)CCC3)(C1)C2)c1ccc(Cl)c(Cl)c1 [Example 5]")
"Y"
>>> label_value("O=C(NC12CC(C3(C(=O)Nc4ccc(F)cc4)CC3)(C1)C2)c1ccc(Cl)c(Cl)c1 [Example 100]")
"N"
>>> label_value("CC(C(=O)Nc1ccc(Cl)cc1)C12CC(NC(=O)c3cccc(Cl)c3)(C1)C2 (single isomer, unassigned) [Example 7]")
"Y"

Consider the molecule CC(C(=O)Nc1ccc(F)cc1)C12CC(NC(=O)c3cccc(Cl)c3)(C1)C2 (single isomer, unassigned) [Example 1] . Is its IC50 strictly less than 100 nM?
N

Could you do the same for C[C@H](C(=O)Nc1ccc(F)cc1)C12CC(NC(=O)c3cc(F)c(F)c(F)c3)(C1)C2 [Example 145] , please?
Y

Could you do the same for Cc1cc(C(=O)NC23CC([C@@H](C)C(=O)Nc4ccc(F)cc4)(C2)C3)ccc1F [Example 46] , please?
N
